Reference source: the NIST ThermoML archive (doi:10.1016/j.fluid.2019.03.023)

assayInfo: activity coefficient (dimensionless); of the first substance listed, at infinite dilution; xn = mol fraction of the nth substance listed
conditionDescription: 333.15 K; 101.33 kPa; Liquid; Chromatography; x1 = 0
measuredQuantity: activity coefficient
Write no unit; give the number alone.

Would you please look over these solved cases?
{"compound": "C#CCCCC [1-hexyne] + CCCCCCCCCCCCCC[P+](CCCCCC)(CCCCCC)CCCCCC.N#C[N-]C#N", "activity coefficient": 0.593}
{"compound": "C=CCCCCC [1-heptene] + CCCCCCCCCCCCCC[P+](CCCCCC)(CCCCCC)CCCCCC.N#C[N-]C#N", "activity coefficient": 1.17}
{"compound": "Cc1ccccc1C [1,2-dimethylbenzene] + CCCCCCCCCCCCCC[P+](CCCCCC)(CCCCCC)CCCCCC.N#C[N-]C#N", "activity coefficient": 0.613}
{"compound": "CCCCCC [hexane] + CCCCCCCCCCCCCC[P+](CCCCCC)(CCCCCC)CCCCCC.N#C[N-]C#N", "activity coefficient": 1.32}
{"compound": "C1=CCCCC1 [cyclohexene] + CCCCCCCCCCCCCC[P+](CCCCCC)(CCCCCC)CCCCCC.N#C[N-]C#N", "activity coefficient": 0.76}
{"compound": "CCCCCCCCCC [decane] + CCCCCCCCCCCCCC[P+](CCCCCC)(CCCCCC)CCCCCC.N#C[N-]C#N", "activity coefficient": 2.54}
{"compound": "CCC(C)(C)C [2,2-dimethylbutane] + CCCCCCCCCCCCCC[P+](CCCCCC)(CCCCCC)CCCCCC.N#C[N-]C#N", "activity coefficient": 1.28}
{"compound": "CC#N [acetonitrile] + CCCCCCCCCCCCCC[P+](CCCCCC)(CCCCCC)CCCCCC.N#C[N-]C#N", "activity coefficient": 0.624}
{"compound": "C=CCCCC [hex-1-ene] + CCCCCCCCCCCCCC[P+](CCCCCC)(CCCCCC)CCCCCC.N#C[N-]C#N", "activity coefficient": 1.06}
{"compound": "C=CCCC [1-pentene] + CCCCCCCCCCCCCC[P+](CCCCCC)(CCCCCC)CCCCCC.N#C[N-]C#N", "activity coefficient": 0.922}

Please fill in: activity coefficient reported for O [water] + CCCCCCCCCCCCCC[P+](CCCCCC)(CCCCCC)CCCCCC.N#C[N-]C#N = 1.73
